Each recorded value in this set is attributed to patent US12715909.

Target: T1, human IGFBP5 (human, UniProt P24593 21-272)
T1 construct: Bought protein; in BLI it was in solution; also called hIGFBP-5
T1 sequence (P24593 21-272 limits assumed): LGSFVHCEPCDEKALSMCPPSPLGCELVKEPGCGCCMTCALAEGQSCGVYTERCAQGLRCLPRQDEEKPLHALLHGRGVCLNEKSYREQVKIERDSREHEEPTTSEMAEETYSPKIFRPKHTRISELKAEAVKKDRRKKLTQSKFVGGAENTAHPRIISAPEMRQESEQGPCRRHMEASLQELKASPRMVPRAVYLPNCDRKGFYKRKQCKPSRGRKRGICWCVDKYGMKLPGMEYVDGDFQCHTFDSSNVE
Experiment: ELISA, scFv, secondary screening
parameter measured: binding result

| binder | parameter measured | result |
| --- | --- | --- |
| D10 scFv (scFv, V domains shown, scFv as screened by ELISA) VH: QVQLVQSGAEVKKPGASVKVSCKASGYTFTSYGISWVRQAPGQGLEWMGWISAYNGNTNYAQKLQGRVTMTTDTSTSTAYMELRSLRSDDTAVYYCARDRYLGWFDPWGQGTLVTVSS VL: QSALTQPASVSGSPGQSITISCTGTSSDVGGYNYVSWYQQHPGKAPKLMIYEVSNRPSGVSNRFSGSKSGNTASLTISGLQAEDEADYYCSSYTSSSTPYVFGTGTKLTVL | binding result | binds |
| G01 scFv (scFv, V domains shown, scFv as screened by ELISA) VH: QVQLVQSGAEVKKPGSSVKVSCKASGGTFSSYAISWVRQAPGQGLEWMGGIIPIFGTANYAQKFQGRVTITADESTSTAYMELSSLRSEDTAVYYCASITEGAFDYWGQGTLVTVSS VL: AIQLTQSPSTLSASVGDRVTITCRASRTVGSWLAWYQQKPGKAPKLLIYDASNLQSGVPSRFSGSGSGTEFTLTISSLQPDDLSTYYCQQYNSSPYTFGQGTKVEIK | binding result | binds |
| E02 scFv (scFv, V domains shown, scFv as screened by ELISA) VH: QMQLVQSGAEVKKPGSSVKVSCKASGGTFSSYAISWVRQAPGQGLEWMGGIIPIFGTANYAQKFQGRVTITADESTSTAYMELSSLRSEDTAVYYCATMSVAGPSISFDYWGQGTLVTVSS VL: DIQMTQSPSSLSASVGDRVAIPCRASQSISSYLNWYQQKPGKAPKLLIYAASSLQRGVPSRFSGSGSGTDFTLTISSLQPEDFATYYCQETYSNLWTFGQGTKVEIK | binding result | binds |
